Test system: SF-295
Assay: NCI tumour cell line growth inhibition, 48 h
Calls of active or inactive are those of the source. No stated cut-off is given here; in the data, active = GI50 up to about 1.1 µM and inactive = higher.
Give one outcome, nothing more. List: Y = active, N = inactive

Query string: Which result was noted for this molecule in the test: CCc1cccc(C(C)C)c1NC(=O)/C(=N\NC(N)=O)C(C(=O)OC)c1cnc2ccccc2n1 (centres undefined)
Result string: N

Query string: Which result was noted for this molecule in the test: O=C1c2ccccc2NC(c2cc(Cl)cc(Cl)c2O)N1CCc1ccccn1 (centres undefined)
Result string: N

Query string: Which result was noted for this molecule in the test: NNC(=O)c1cc(=O)[nH][nH]1
Result string: N

Query string: Which result was noted for this molecule in the test: CC(=O)O[C@H]1C(=O)[C@@]2(C)[C@H]([C@H](OC(=O)c3ccccc3)[C@]3(O)C[C@H](OC(=O)[C@H](O)[C@@H](NC(=O)C(C)(C)C)c4ccccc4)C(C)=C1C3(C)C)[C@]1(OC(C)=O)CO[C@@H]1C[C@@H]2O
Result string: Y

Query string: Which result was noted for this molecule in the test: N#Cc1c(N)c2c(c(-c3ccccc3)c1-c1ccccc1)C(=O)N(NC(=S)Nc1ccccc1)C2=O
Result string: N

Query string: Which result was noted for this molecule in the test: COc1cccc2c(=O)c3c(O)c4cc(N(C)C)ccc4c(OC(C)=O)c3oc12
Result string: N

Query string: Which result was noted for this molecule in the test: CN1C(=O)C(C#N)C2C[C@@]1(C)Oc1ccccc12 (some centres undefined)
Result string: N

Query string: Which result was noted for this molecule in the test: Cc1cc(=O)oc2c(CN(CCCl)CCCl)c(O)ccc12
Result string: N

Query string: Which result was noted for this molecule in the test: CN(C)/C=N\c1nc(=O)n(C2CCC(CO)O2)cc1F (centres undefined)
Result string: N

Query string: Which result was noted for this molecule in the test: OC1(c2ccc(-c3ccccc3)cc2)c2ccccc2C2=NCCN21 (centres undefined)
Result string: N

Query string: Which result was noted for this molecule in the test: Cc1cc(Cl)ccc1NC(=O)C(=O)Cc1nc2ccccc2o1
Result string: N

Query string: Which result was noted for this molecule in the test: Nc1ccc2c(c1)S(=O)(=O)c1cc(N)ccc1-2
Result string: N

Query string: Which result was noted for this molecule in the test: CCOC(=O)CCC(NC(=O)c1ccc(Oc2nc3c(N)cc(C(F)(F)F)cc3nc2-c2ccccc2)cc1)C(=O)OCC (centres undefined)
Result string: N

Query string: Which result was noted for this molecule in the test: CCOC1(OCC)N=C(N)C2(C#N)C3(C(=O)N(C(C)C)N=C3C)C12C#N (centres undefined)
Result string: N

Query string: Which result was noted for this molecule in the test: CC1CCCC2(CC[N+](C)(CCC[N+](C)(C)C)CC2)C1 (centres undefined)
Result string: N

Query string: Which result was noted for this molecule in the test: CC(C)(C)c1cc(C(=O)/C=C/c2ccc3c(c2)OCO3)cc(C(C)(C)C)c1O
Result string: N

Query string: Which result was noted for this molecule in the test: COC(=O)C(C(=O)C(=O)Nc1ccc([N+](=O)[O-])cc1)c1nc2cc(C)c(C)cc2nc1O (centres undefined)
Result string: N

Query string: Which result was noted for this molecule in the test: CC(=O)c1c(O)ccc2c1c1c(n2C)C(=O)c2ccccc2C1=O
Result string: N

Query string: Which result was noted for this molecule in the test: CCN(CC)CCN1CCN=C2c3cc(OC)ccc3Nc3c([N+](=O)[O-])ccc1c32
Result string: N

Query string: Which result was noted for this molecule in the test: O=C1C(NS(=O)(=O)c2ccccc2)=C(N(Cc2ccccc2)Cc2ccccc2)C(=O)c2ccccc21
Result string: N

Query string: Which result was noted for this molecule in the test: N/C(=N\O)N/N=C/c1ncccc1O
Result string: N

Query string: Which result was noted for this molecule in the test: Cn1cnc(C(N)=[Se])c1N
Result string: Y

Query string: Which result was noted for this molecule in the test: c1cnc2c3[nH]cc4[nH]c5ccccc5c4c-3nc2c1
Result string: N

Query string: Which result was noted for this molecule in the test: CC(=O)c1ccc(NC(=O)/C(Cc2ccccn2)=N/NC(=O)C[N+](C)(C)C)cc1
Result string: N

Query string: Which result was noted for this molecule in the test: C/C=C/[C@@H]1O[C@H](CC#C[Si](C)(C)C)[C@@]2(C=O)C(C)=CC[C@H](C(C)C)[C@@H]12
Result string: N

Query string: Which result was noted for this molecule in the test: Nc1c(S(=O)(=O)O)cc(S(=O)(=O)O)c2ccc(/N=N/c3ccc(/C=C/c4ccc(/N=N/c5ccc6c(S(=O)(=O)O)cc(S(=O)(=O)O)c(N)c6c5O)cc4S(=O)(=O)O)c(S(=O)(=O)O)c3)c(O)c12
Result string: N

Query string: Which result was noted for this molecule in the test: C#CCNC(CCCNC(=N)N)C(=O)O (centres undefined)
Result string: N

Query string: Which result was noted for this molecule in the test: COC(=O)C1C(C(=O)OC)C2(OC(c3ccc(Cl)cc3)=CC2=O)C12OC(c1ccc(Cl)cc1)=CC2=O (centres undefined)
Result string: N

Query string: Which result was noted for this molecule in the test: O=[N+]([O-])c1ccc2nc3n(c2c1)C(c1c(F)cccc1F)SC3 (centres undefined)
Result string: N

Query string: Which result was noted for this molecule in the test: CC(C)C(C)C(O)C(O)C(C)C1CCC2C3COC(=O)C4CC(O)C(O)CC4(C)C3CCC12C (centres undefined)
Result string: N

Query string: Which result was noted for this molecule in the test: c1ccc(C2N3CCCCC3[C@@H]3c4[nH]c5ccccc5c4CCN23)nc1 (some centres undefined)
Result string: N

Query string: Which result was noted for this molecule in the test: COc1cc(OC)cc(Oc2nc3cc(F)c(F)cc3nc2-c2ccccc2)c1
Result string: N

Query string: Which result was noted for this molecule in the test: N#CC1C(=O)NC(=O)C1=O (centres undefined)
Result string: N

Query string: Which result was noted for this molecule in the test: O=c1oc2ccc3ccccc3c2cc1-c1nc2ccccc2s1
Result string: N

This collection of values is drawn from ChEMBL document CHEMBL1201862.
